Target System: Ba/F3-EGFR-WT cells (Homo sapiens)
Method Notes: Ba/F3 cell survival assay (Cell Titer-Glo), WT EGFR
Type: cell-based
Stated Conditions: without IL-3, with 10 ng/mL EGF, 48 h; read-out: BA/F3 (wild type) IC50
Reported GI50 values for a set of compounds
Attribute Measured: GI50 (nM)

• CCc1c(F)cccc1Nc1c(-c2ccncc2OCC2COC(C)(C)CO2)[nH]c2c1C(=O)NCC2 (stereo not shown) [Example 68] = 644
• COc1c(Cl)cc(F)cc1Nc1c(-c2ccncc2OC[C@@H]2CN(CC(F)(F)F)CCO2)[nH]c2c1C(=O)NCC2 = 1240
• Cc1c(F)cccc1Nc1c(-c2ccncc2OCC2COCCO2)[nH]c2c1C(=O)NCC2 (single isomer, unassigned) [Example 48] = 379
• Cc1c(F)cccc1Nc1c(-c2ccncc2OCC2CN(C)CCO2)[nH]c2c1C(=O)NCC2 (single isomer, unassigned) [Example 64] = 271

* * *

Target System: Ba/F3-EGFR-WT cells (Homo sapiens, UniProt P00533)
Sequence (P00533 whole entry, change not shown): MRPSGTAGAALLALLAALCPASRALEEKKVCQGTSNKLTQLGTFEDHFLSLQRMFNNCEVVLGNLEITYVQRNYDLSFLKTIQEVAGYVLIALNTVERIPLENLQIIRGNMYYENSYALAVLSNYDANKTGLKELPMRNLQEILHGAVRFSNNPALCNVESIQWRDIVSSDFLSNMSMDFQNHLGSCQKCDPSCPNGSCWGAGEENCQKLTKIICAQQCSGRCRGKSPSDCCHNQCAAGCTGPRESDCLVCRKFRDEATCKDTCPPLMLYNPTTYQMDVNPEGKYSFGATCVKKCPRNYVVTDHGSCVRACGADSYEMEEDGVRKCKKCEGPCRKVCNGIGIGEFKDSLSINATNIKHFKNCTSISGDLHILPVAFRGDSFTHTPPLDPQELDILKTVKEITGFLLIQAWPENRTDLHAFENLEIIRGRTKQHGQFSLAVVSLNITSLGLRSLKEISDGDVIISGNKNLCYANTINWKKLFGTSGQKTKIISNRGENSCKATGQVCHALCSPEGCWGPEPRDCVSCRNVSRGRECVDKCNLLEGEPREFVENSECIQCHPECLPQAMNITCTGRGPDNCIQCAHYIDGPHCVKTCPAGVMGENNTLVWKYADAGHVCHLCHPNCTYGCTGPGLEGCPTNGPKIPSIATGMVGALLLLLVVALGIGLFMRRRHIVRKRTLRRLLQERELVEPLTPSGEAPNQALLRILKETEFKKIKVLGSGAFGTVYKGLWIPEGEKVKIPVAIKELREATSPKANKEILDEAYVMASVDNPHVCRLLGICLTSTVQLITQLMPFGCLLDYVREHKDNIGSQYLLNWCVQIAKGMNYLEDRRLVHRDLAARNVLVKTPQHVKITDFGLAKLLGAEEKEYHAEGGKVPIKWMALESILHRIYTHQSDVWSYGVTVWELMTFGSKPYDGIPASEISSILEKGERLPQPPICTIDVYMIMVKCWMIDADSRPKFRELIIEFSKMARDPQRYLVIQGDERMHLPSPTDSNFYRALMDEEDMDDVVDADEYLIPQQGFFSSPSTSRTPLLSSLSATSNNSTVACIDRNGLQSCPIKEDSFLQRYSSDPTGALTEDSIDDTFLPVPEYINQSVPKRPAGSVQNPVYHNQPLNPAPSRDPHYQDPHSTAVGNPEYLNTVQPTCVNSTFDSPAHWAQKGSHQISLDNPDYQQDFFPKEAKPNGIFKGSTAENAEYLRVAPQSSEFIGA
Method Notes: Ba/F3 cell survival assay (Cell Titer-Glo), WT EGFR
Format: cell-based
Stated Conditions: without IL-3, with 10 ng/mL EGF, 48 h; read-out: BA/F3 (wild type) IC50
Attribute Measured: GI50 (nM)

* Cc1c(F)cccc1Nc1c(-c2ccncc2OCC2COC(C)(C)CO2)[nH]c2c1C(=O)NCC2 (single isomer, unassigned) [Example 39] | 630
* O=C1NCCc2[nH]c(-c3ccncc3OCC3COCCO3)c(Nc3cccc(F)c3CC(F)F)c21 (centres unmarked) | 867
* CN1CCO[C@H](COc2cnccc2-c2[nH]c3c(c2Nc2cccc(F)c2CC(F)F)C(=O)NCC3)C1 | 695
* Cc1c(Cl)cccc1Nc1c(-c2ccncc2OC[C@H]2COCCO2)[nH]c2c1C(=O)NCC2 (single isomer, unassigned) [Example 50] | 361
* COc1c(Cl)cccc1Nc1c(-c2ccncc2O[C@@H](C)C2COCCO2)[nH]c2c1C(=O)NCC2 (single isomer, unassigned) [Example 58] | 519

* * *

Target System: EGFR with insertion of SVD between D770 and N771 (EGFR ins SVD) (Homo sapiens, UniProt P00533, DUP768-770)
Construct: made in house; host or cells: Sf9 insect cells (baculovirus)
Sequence (P00533 with tags, fused parts or gaps DUP768-770): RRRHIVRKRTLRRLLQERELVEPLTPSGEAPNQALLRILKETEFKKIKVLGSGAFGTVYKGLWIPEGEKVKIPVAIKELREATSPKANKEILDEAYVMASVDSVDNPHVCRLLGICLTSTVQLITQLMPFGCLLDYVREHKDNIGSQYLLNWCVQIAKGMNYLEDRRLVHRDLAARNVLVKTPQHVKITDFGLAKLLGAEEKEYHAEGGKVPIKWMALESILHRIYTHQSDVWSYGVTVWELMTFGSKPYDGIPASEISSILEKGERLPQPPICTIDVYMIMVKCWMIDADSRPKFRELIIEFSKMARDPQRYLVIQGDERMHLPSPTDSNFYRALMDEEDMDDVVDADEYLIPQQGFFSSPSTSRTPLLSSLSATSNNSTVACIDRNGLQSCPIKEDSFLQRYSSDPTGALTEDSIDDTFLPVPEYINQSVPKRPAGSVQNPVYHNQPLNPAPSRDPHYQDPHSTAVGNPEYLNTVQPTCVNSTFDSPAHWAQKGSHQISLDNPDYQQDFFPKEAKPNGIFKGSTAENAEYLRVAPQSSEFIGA
Method Notes: Exon20-Mutant-EGFR(D770_N771insSVD) kinase assay (TR-FRET)
Assay type: biochemical
Stated Conditions: 2 mM ATP, several values per example where printed
Item-by-item account of mutEGFR (D770_N771insSVD) kinase assay IC50
Attribute Measured: mutEGFR (D770_N771insSVD) kinase assay IC50 (nM)

• COc1c(Cl)cccc1Nc1c(-c2ccncc2OCC2COCCO2)[nH]c2c1C(=O)NCC2 (stereo not drawn) [Example 1] = 0.159
• COc1c(Cl)cccc1Nc1c(-c2ccncc2O[C@@H](C)C2COCCO2)[nH]c2c1C(=O)NCC2 (mixture of isomers) [Example 57] = 0.269
• CCc1c(F)cccc1Nc1c(-c2ccncc2OCC2COCCO2)[nH]c2c1C(=O)NCC2 (single isomer, unassigned) [Example 66] = 0.182

* * *

Target System: Ba/F3-EGFR-WT cells (Homo sapiens, UniProt P00533)
Method Notes: Ba/F3 cell survival assay (Cell Titer-Glo), WT EGFR
Assay type: cell-based
Stated Conditions: without IL-3, with 10 ng/mL EGF, 48 h; read-out: BA/F3 (wild type) IC50
Entries and their GI50
Attribute Measured: GI50 (nM)

* CCc1c(Cl)cccc1Nc1c(-c2ccncc2OC[C@@H]2CN(C)CCO2)[nH]c2c1C(=O)NCC2 | 435
* COc1c(Cl)cccc1Nc1c(-c2ccncc2OCC2CN(C)CCO2)[nH]c2c1C(=O)NCC2 (stereo not shown) [Example 15] | 426
* CCc1c(F)cccc1Nc1c(-c2ccncc2OCC2COCCO2)[nH]c2c1C(=O)NCC2 (stereo not shown) [Example 65] | 287
* Cc1c(Cl)cccc1Nc1c(-c2ccncc2OCC2COCCO2)[nH]c2c1C(=O)NCC2 (stereo not shown) | 496

* * *

Target System: Ba/F3-EGFR-WT cells (Homo sapiens)
Method Notes: Ba/F3 cell survival assay (Cell Titer-Glo), WT EGFR
Assay type: cell-based
Stated Conditions: without IL-3, with 10 ng/mL EGF, 48 h; read-out: BA/F3 (wild type) IC50
Reported GI50 is given for each of the following molecules.
Attribute Measured: GI50 (µM)

* COc1c(F)cccc1Nc1c(-c2ccncc2OCCC2COCCO2)[nH]c2c1C(=O)NCC2 (single isomer, unassigned) [Example 36] | 0.845
* COc1c(Cl)cccc1Nc1c(-c2ccncc2OC(C)C2CN(C)CCO2)[nH]c2c1C(=O)NCC2 (single isomer, unassigned) [Example 74] | 0.828
* COc1c(Cl)cccc1Nc1c(-c2ccncc2OCC2COCCO2)[nH]c2c1C(=O)NCC2 (stereo not drawn) | 0.366
